All values here come from paper PMC7413254.

Can you tell me inhibition at 1000 µM for the items I'm about to list?
# EXPERIMENTAL TARGET: PfCRT^Ecu1110 (Plasmodium falciparum, UniProt Q9N623, A220S/I356L/K76T/N326D)
# Sequence (Q9N623 whole entry A220S/I356L/K76T/N326D): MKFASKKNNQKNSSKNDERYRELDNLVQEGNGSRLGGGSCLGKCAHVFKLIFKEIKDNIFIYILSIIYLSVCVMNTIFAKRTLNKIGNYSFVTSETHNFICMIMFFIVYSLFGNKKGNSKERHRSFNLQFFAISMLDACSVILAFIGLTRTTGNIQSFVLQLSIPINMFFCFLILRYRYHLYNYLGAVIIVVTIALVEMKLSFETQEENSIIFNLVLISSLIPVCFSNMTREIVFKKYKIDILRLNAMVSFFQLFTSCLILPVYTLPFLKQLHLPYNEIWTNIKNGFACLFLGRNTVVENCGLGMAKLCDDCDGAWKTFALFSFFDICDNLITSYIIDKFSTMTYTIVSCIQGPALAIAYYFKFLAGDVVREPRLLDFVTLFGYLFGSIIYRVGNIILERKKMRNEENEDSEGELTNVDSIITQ
# ASSAY SUMMARY: [3H]CQ uptake into Xenopus oocytes, cis-inhibition by unlabelled solute
# Type: cell-based
# EXPERIMENTAL CONTEXT: read-out: Uptake of [3H]CQ (% PfCRTDd2 control), cis-inhibition, PfCRTEcu1110; SEM
One number for each entry, in %.

stdin: Under PfCRT^Ecu1110 (Plasmodium falciparum, UniProt Q9N623, A220S/I356L/K76T/N326D), report inhibition at 1000 µM for N[C@@H](Cc1c[nH]c2ccccc12)C(=O)O [L-tryptophan]
stdout: 32

For each of the items listed, what is its inhibition at 1000 µM?
1. CC(C)[C@H](N)C(=O)O [L-valine]
2. CC[C@H](C)[C@H](N)C(=O)O [L-isoleucine]
3. N[C@@H](Cc1ccccc1)C(=O)O [L-phenylalanine]

stdout:
32
33
32

###

# EXPERIMENTAL TARGET: PfCRT^Ecu1110 (Plasmodium falciparum, UniProt Q9N623, A220S/I356L/K76T/N326D)
# ASSAY SUMMARY: [3H]CQ uptake into Xenopus oocytes, cis-inhibition by unlabelled solute
# Assay type: cell-based
# EXPERIMENTAL CONTEXT: read-out: [3H]CQ transport (% PfCRTEcu1110 control), cis-inhibition, PfCRTEcu1110; SEM
REPORTED ENDPOINT: inhibition at 500 µM (%)
Give bare numbers, in %.

# annotated cases, reported inhibition at 500 µM shown
stdin: Under PfCRT^Ecu1110 (Plasmodium falciparum, UniProt Q9N623, A220S/I356L/K76T/N326D), report inhibition at 500 µM for C[C@H](N)C(=O)O [L-alanine]
stdout: 28

stdin: Identify measured inhibition at 500 µM obtained with PfCRT^Ecu1110 (Plasmodium falciparum, UniProt Q9N623, A220S/I356L/K76T/N326D) for N[C@@H](CS)C(=O)O [L-cysteine] .
stdout: 28

For each of the molecules below, note its inhibition at 500 µM.
1. N[C@@H](CCC(=O)O)C(=O)O [L-glutamic acid]
2. CC[C@H](C)[C@H](N)C(=O)O [L-isoleucine]
3. CC(C)C[C@H](N)C(=O)O [L-leucine]
4. N[C@@H](Cc1ccccc1)C(=O)O [L-phenylalanine]

stdout:
[28, 28, 30, 29]

###

I'd appreciate it if you could supply Trans-stimulation data: total [3H]CQ transport values for the items below.
# EXPERIMENTAL TARGET: PfCRT^Ecu1110 (Plasmodium falciparum, UniProt Q9N623, A220S/I356L/K76T/N326D)
# ASSAY SUMMARY: cell-based
# Assay type: cell-based
# EXPERIMENTAL CONTEXT: PfCRTEcu1110 oocytes; footnote b: highest intracellular concentration tested was 30 mM (solubility); normalised to the oocyte type control (control = 100)
One number for each entry, in b.

stdin: Please give measured Trans-stimulation data: total [3H]CQ transport of the following entry: DDEGDDDPVPLPNVNA [DA-16, additional peptide, 16 residues]
stdout: 99

stdin: Look up and state reported Trans-stimulation data: total [3H]CQ transport for SFGDLSTPDAVMG [SG-13]
stdout: 101

stdin: Kindly indicate its recorded Trans-stimulation data: total [3H]CQ transport. Item: LTPEEKSAVTAL [LL-12]
stdout: 100

stdin: Give Trans-stimulation data: total [3H]CQ transport for VHLTPEEKSAVT [VT-12]
stdout: 101

Need Trans-stimulation data: total [3H]CQ transport for each of these sequences.
1. VEPSDTIENVK [VK-11]
2. FESFGDLSTPDAVMGNPKVK [FK-20, additional peptide, 20 residues]
3. YFPHFDLS [YS-8]

stdout:
1: 131; 2: 99; 3: 99

###

For each of the compounds below, state its inhibition at 2000 µM.
# EXPERIMENTAL TARGET: PfCRT^Dd2 (Plasmodium falciparum, UniProt Q9N623, A220S/I356T/K76T/M74I/N326S/N75E/Q271E/R371I)
# Sequence (Q9N623 whole entry A220S/I356T/K76T/M74I/N326S/N75E/Q271E/R371I): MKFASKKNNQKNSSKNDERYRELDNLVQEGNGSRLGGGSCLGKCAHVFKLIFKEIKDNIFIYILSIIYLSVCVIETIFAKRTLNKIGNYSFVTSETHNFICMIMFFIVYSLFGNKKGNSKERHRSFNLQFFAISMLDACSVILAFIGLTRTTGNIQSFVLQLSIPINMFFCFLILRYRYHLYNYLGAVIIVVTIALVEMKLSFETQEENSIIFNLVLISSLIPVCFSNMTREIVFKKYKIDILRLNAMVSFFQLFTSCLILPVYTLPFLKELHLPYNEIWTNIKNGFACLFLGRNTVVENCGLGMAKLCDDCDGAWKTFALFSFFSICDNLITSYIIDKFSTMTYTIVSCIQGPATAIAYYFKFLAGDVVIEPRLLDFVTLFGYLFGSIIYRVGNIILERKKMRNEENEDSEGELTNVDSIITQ
# ASSAY SUMMARY: [3H]CQ uptake into Xenopus oocytes, cis-inhibition by unlabelled solute
# Format: cell-based
# EXPERIMENTAL CONTEXT: read-out: Uptake of [3H]CQ (% PfCRTDd2 control), cis-inhibition, PfCRTDd2; SEM
Answers are plain numbers, in %.

Previously resolved entries follow.
stdin: Determine from records and report inhibition at 2000 µM for "CC(C)[C@H](N)C(=O)O"
stdout: 95

stdin: Give inhibition at 2000 µM for "CSCC[C@H](N)C(=O)O"
stdout: 97

stdin: Using known records, supply inhibition at 2000 µM for "N[C@@H](CS)C(=O)O"
stdout: 97

stdin: Determine from records and report inhibition at 2000 µM for "N[C@@H](Cc1c[nH]c2ccccc12)C(=O)O"
stdout: 97

stdin: Provide inhibition at 2000 µM value for the following compound: "CC(C)C[C@H](N)C(=O)O"
stdout: 100

stdin: Look up inhibition at 2000 µM of "N[C@@H](CO)C(=O)O" and report it.
stdout: 96

stdin: Give me measured inhibition at 2000 µM, please, for this compound: "N[C@@H](CCC(=O)O)C(=O)O"
stdout: 96

stdin: Dear colleague, please send me the reported inhibition at 2000 µM for "N=C(N)NCCC[C@H](N)C(=O)O" when you can.
stdout: 98

Batch request: inhibition at 2000 µM per item, same order as input.
1. C[C@H](N)C(=O)O
2. N[C@@H](Cc1ccccc1)C(=O)O
3. CC[C@H](C)[C@H](N)C(=O)O
4. NC(=O)CC[C@H](N)C(=O)O

stdout:
1: 98; 2: 98; 3: 98; 4: 97

###

# EXPERIMENTAL TARGET: PfNT1 (Plasmodium falciparum)
# Construct: expressed in transfected cells; host or cells: Xenopus laevis oocytes (stage V-VI), cRNA-injected
# Sequence (Q8IDM6 whole entry): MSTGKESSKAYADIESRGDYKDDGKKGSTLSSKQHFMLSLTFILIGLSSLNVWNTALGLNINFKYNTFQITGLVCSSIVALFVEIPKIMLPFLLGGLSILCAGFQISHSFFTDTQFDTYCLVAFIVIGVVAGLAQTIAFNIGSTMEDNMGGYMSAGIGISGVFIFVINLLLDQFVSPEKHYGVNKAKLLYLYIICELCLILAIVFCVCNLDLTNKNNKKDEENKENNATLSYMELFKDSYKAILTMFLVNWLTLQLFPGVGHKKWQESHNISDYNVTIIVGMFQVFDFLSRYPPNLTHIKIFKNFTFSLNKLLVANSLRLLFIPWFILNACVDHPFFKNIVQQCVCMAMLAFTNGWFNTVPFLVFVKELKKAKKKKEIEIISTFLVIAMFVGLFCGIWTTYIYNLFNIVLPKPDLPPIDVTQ
# ASSAY SUMMARY: cell-based
# Type: cell-based
# EXPERIMENTAL CONTEXT: […]; SEM; read-out: Uptake of [3H]CQ (% PfCRTDd2 control), trans-stimulation, PfNT1
REPORTED ENDPOINT: activity at 45000 µM (%)
Answers are plain numbers, in %.

stdin: Report activity at 45000 µM, nothing else, for this compound: "CC[C@H](C)[C@H](N)C(=O)O"
stdout: 2.2

stdin: Identify the reported activity at 45000 µM for the following entry. "N=C(N)NCCC[C@H](N)C(=O)O"
stdout: 3.1

stdin: For the compound "N[C@@H](Cc1c[nH]cn1)C(=O)O" , report activity at 45000 µM.
stdout: 2.6

stdin: Look up activity at 45000 µM of "N[C@@H](CO)C(=O)O" and report it.
stdout: 2.3

stdin: Consider the compound "NC(=O)CC[C@H](N)C(=O)O" . State its measured activity at 45000 µM.
stdout: 2.8

# return activity at 45000 µM for each item in the list
1. CC(C)[C@H](N)C(=O)O
2. NCCCC[C@H](N)C(=O)O
3. N[C@@H](CS)C(=O)O
4. C[C@H](N)C(=O)O
5. CC(C)C[C@H](N)C(=O)O
6. N[C@@H](Cc1ccccc1)C(=O)O

stdout:
[2.9, 2.8, 2.6, 3.2, 2.3, 2.8]

Hi! Can you tell me activity at 45000 µM for each of these compounds?
1. N[C@@H](Cc1c[nH]c2ccccc12)C(=O)O
2. C[C@@H](O)[C@H](N)C(=O)O

stdout:
[2.1, 2.6]

###

# EXPERIMENTAL TARGET: UniProtKB Q8IBZ9
# Sequence (Q8IBZ9 59-398): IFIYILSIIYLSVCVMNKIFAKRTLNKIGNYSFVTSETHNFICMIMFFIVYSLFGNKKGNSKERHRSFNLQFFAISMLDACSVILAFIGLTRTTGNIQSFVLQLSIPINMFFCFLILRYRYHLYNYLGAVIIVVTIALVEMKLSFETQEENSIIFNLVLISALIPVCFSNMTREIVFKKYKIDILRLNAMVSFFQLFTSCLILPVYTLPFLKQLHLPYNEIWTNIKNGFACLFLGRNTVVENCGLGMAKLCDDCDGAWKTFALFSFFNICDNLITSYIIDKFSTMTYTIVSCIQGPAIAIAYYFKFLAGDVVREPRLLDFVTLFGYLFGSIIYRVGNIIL
# ASSAY SUMMARY: cell-based
# Type: cell-based
# EXPERIMENTAL CONTEXT: total [3H]CQ transport; [test solute] = 0.5 mM; mean ± SEM; SEM; read-out: Uptake of [3H]CQ (% PfCRTDd2 control), cis-inhibition, PfCRT3D7
REPORTED ENDPOINT: inhibition at 500 µM (%)
One number for each entry, in %.

stdin: Note inhibition at 500 µM for the compound shown: "N[C@@H](CS)C(=O)O"
stdout: 3.4

stdin: Identify measured inhibition at 500 µM associated with "CC[C@H](C)[C@H](N)C(=O)O"
stdout: 3.1

stdin: Let me know recorded inhibition at 500 µM for "N[C@@H](Cc1ccccc1)C(=O)O" , thanks.
stdout: 3.1

stdin: Provide measured inhibition at 500 µM value, entry: "C[C@@H](O)[C@H](N)C(=O)O"
stdout: 2.9

stdin: Quickly give me recorded inhibition at 500 µM for "N[C@@H](Cc1c[nH]cn1)C(=O)O"
stdout: 3.7

Return reported inhibition at 500 µM values for all items listed beneath this line.
1. N[C@@H](CCC(=O)O)C(=O)O
2. NCCCC[C@H](N)C(=O)O
3. N[C@@H](Cc1c[nH]c2ccccc12)C(=O)O
4. N=C(N)NCCC[C@H](N)C(=O)O

stdout:
2.2
3.4
2.7
2.4

Please give inhibition at 500 µM for each item listed below.
1. C[C@H](N)C(=O)O
2. N[C@@H](CO)C(=O)O
3. NC(=O)CC[C@H](N)C(=O)O
4. CC(C)C[C@H](N)C(=O)O
5. CC(C)[C@H](N)C(=O)O

stdout:
4.2
3.1
2.6
3.2
3.1
